Provenance of the data: patent US20220218785A1

TEST_TARGET: T1, human CD28 (human, UniProt P10747 19-220)
T1 construct: whole, on cells
ASSAY_PROCEDURE: flow cytometry, cells with human CD28; protein from CHO

BINDER	UNIT	MFI (ΔWT)
ICOSL ECD Truncation #6 with N52H/N57Y/Q100R/C198R (Fc fusion, not shown: a dimerising Fc or GST, Made in CHO cells) DTQEKEVRAMVGSDVELSCACPEGSRFDLNDVYVYWQTSESKTVVTYHIPQHSSLEYVDSRYRNRALMSPAGMLRGDFSLRLFNVTPQDEQKFHCLVLSRSLGFQEVLSVEVTLHVAANFSVPVVSAPHSPSQDELTFTCTSINGYPRPNVYWINKTDNSLLDQALQNDTVFLNMRGLYDVVSVLRIARTPSVNIGCRIENVLL	fold vs WT	49
ICOSL IgV with N52H/N57Y/Q100R and H48R/S54P, Fc fusion (Fc fusion, Made in CHO cells. '554P' is read as S54P; also called ICOSL IgV with N52H/N57Y/Q100R and H48R/554P) DTQEKEVRAMVGSDVELSCACPEGSRFDLNDVYVYWQTSESKTVVTYRIPQHSPLEYVDSRYRNRALMSPAGMLRGDFSLRLFNVTPQDEQKFHCLVLSRSLGFQEVLSVEVTLHVAANFSVGGGGSGGGGSEPKSSDKTHTCPPCPAPEAEGAPSVFLFPPKPKDTLMISRTPEVTCVVVDVSHEDPEVKFNWYVDGVEVHNAKTKPREEQYNSTYRVVSVLTVLHQDWLNGKEYKCKVSNKALPAPIEKTISKAKGQPREPQVYTLPPSREEMTKNQVSLTCLVKGFYPSDIAVEWESNGQPENNYKTTPPVLDSDGSFFLYSKLTVDKSRWQQGNVFSCSVMHEALHNHYTQKSLSLSPG	fold vs WT	43.6
ICOSL ECD Truncation #5 with N52H/N57Y/Q100R/C198R (Fc fusion, not shown: a dimerising Fc or GST, Made in CHO cells) DTQEKEVRAMVGSDVELSCACPEGSRFDLNDVYVYWQTSESKTVVTYHIPQHSSLEYVDSRYRNRALMSPAGMLRGDFSLRLFNVTPQDEQKFHCLVLSRSLGFQEVLSVEVTLHVAANFSVPVVSAPHSPSQDELTFTCTSINGYPRPNVYWINKTDNSLLDQALQNDTVFLNMRGLYDVVSVLRIARTPSVNIGCRIENVLLQQ	fold vs WT	50
ICOSL IgV with N52H/N57Y/Q100R, Fc fusion with (G4S)2 linker (Fc fusion, also called ICOSCL IgV with N52H/N57Y/Q100R) DTQEKEVRAMVGSDVELSCACPEGSRFDLNDVYVYWQTSESKTVVTYHIPQHSSLEYVDSRYRNRALMSPAGMLRGDFSLRLFNVTPQDEQKFHCLVLSRSLGFQEVLSVEVTLHVAANFSVGGGGSGGGGSEPKSSDKTHTCPPCPAPEAEGAPSVFLFPPKPKDTLMISRTPEVTCVVVDVSHEDPEVKFNWYVDGVEVHNAKTKPREEQYNSTYRVVSVLTVLHQDWLNGKEYKCKVSNKALPAPIEKTISKAKGQPREPQVYTLPPSREEMTKNQVSLTCLVKGFYPSDIAVEWESNGQPENNYKTTPPVLDSDGSFFLYSKLTVDKSRWQQGNVFSCSVMHEALHNHYTQKSLSLSPG	fold vs WT	49
